The origin of these recorded values is ChEMBL document CHEMBL2203184.

test: Selectivity ratio of Ki for delta opioid receptor in mouse whole brain without cerebellum to Ki for kappa opioid receptor in guinea pig cerebellum
The molecules listed here are annotated with their Ratio Ki.
Answer as a number with no unit attached.

# structureSmiles, quantityName, testResult
rows = [
    ("CN1CC[C@]23c4c5ccc(O)c4O[C@H]2[C@]2(CC[C@@]3(O)[C@H]1C5)O[C@@H]1CO[C@@H]3CO[C@H]2N31", "Ratio Ki", 1.57),
]

Which Ratio Ki is listed for Oc1ccc2c3c1O[C@H]1[C@]4(CC[C@@]5(O)[C@@H](C2)N(CC2CC2)CC[C@]315)O[C@@H]1CO[C@@H]2CO[C@H]4N21 ?
25.9
